Assay: Ribogreen assay for siRNA encapsulation efficiency of Lipid-Based Particles
Assay type: physicochemical
Conditions: in vitro formulation b: Cationic lipid/PEG-Chol/DSPC/Chol 45/10/15/30 wt %, Lipid:siRNA 25:1
REPORTED_PROPERTY: % Encapsulation Efficiency (%)
Number only, in %; omit the unit.

Look over these answered cases.
# COMPOUND, UNITS_OF_MEASURE, % Encapsulation Efficiency
rows = [
    ("CCCCC/C=C\\C/C=C\\CCCCCCCCOCC(COCCCCCCCC/C=C\\C/C=C\\CCCCC)NCCCNCCCCNCCCN [Example 25]", "%", 92.3),
    ("CCCCC/C=C\\C/C=C\\CCCCCCCCOCC(COCCCCCCCC/C=C\\C/C=C\\CCCCC)COC(=O)NCCN1CCCC1 [Example 29]", "%", 95.0),
    ("CCCCC/C=C\\C/C=C\\CCCCCCCCOCC(COCCCCCCCC/C=C\\C/C=C\\CCCCC)CN(C)C [Example 27]", "%", 71.9),
    ("CCCCC/C=C\\C/C=C\\CCCCCCCCOCC(COCCCCCCCC/C=C\\C/C=C\\CCCCC)NCC1CCN(C)CC1 [Example 12]", "%", 84.9),
    ("CCCCC/C=C\\C/C=C\\CCCCCCCCOCC(COCCCCCCCC/C=C\\C/C=C\\CCCCC)NCCN(C)C [Example 7]", "%", 91.8),
]

Request: # query: % Encapsulation Efficiency of entry CCCCC/C=C\C/C=C\CCCCCCCCOCC(COCCCCCCCC/C=C\C/C=C\CCCCC)CN1CCCC1 [Example 24]
Response: 91.7

Request: How about this compound: CCCCCCCC/C=C\CCCCCCCCOCC(COCCCCCCCC/C=C\CCCCCCCC)NCCCN1CCCC1 [Example 53]
Response: 99.0

Request: Follow-up item: CCCCC/C=C\C/C=C\CCCCCCCCOCC(COCCCCCCCC/C=C\C/C=C\CCCCC)NCCc1c[nH]cn1 [Example 9]
Response: 95.8

Request: Another compound: CCCCC/C=C\C/C=C\CCCCCCCCOCC(CNCCCN1CCCC1)COCCCCCCCC/C=C\C/C=C\CCCCC [Example 26]
Response: 99.9

Request: CCCCC/C=C\C/C=C\CCCCCCCCOCC(COCCCCCCCC/C=C\C/C=C\CCCCC)CN1CCN(C)CC1 [Example 23] ?
Response: 98.1

---

Test: Particle sizing assay of in vivo formulations (Zetasizer Nano ZS)
Type: physicochemical
Details: in vivo formulation A: Cationic lipid/Example 58/DSPC/Chol 45/10/15/30 wt %, Lipid:siRNA 25:1
REPORTED_PROPERTY: Size (nm)
Report only the number, with the unit nm understood.

Request: Param item = CCCCC/C=C\C/C=C\CCCCCCCCOCC(COCCCCCCCC/C=C\C/C=C\CCCCC)NCCCN1CCCC1 ; retrieve measured Size.
Response: 121

Request: // next record CCCCC/C=C\C/C=C\CCCCCCCCOCC(COCCCCCCCC/C=C\C/C=C\CCCCC)CN1CCN(C)CC1
Response: 116

Request: Another molecule: CCCCC/C=C\C/C=C\CCCCCCCCOCC(COCCCCCCCC/C=C\C/C=C\CCCCC)NCCc1c[nH]cn1
Response: 138

Request: Please answer likewise for CCCCC/C=C\C/C=C\CCCCCCCCOCC(COCCCCCCCC/C=C\C/C=C\CCCCC)N1CCN(C)CC1
Response: 149

Request: Now the molecule CCCCC/C=C\C/C=C\CCCCCCCCOCC(COCCCCCCCC/C=C\C/C=C\CCCCC)NCCN(C)C
Response: 123

Request: Item: CCCCC/C=C\C/C=C\CCCCCCCCOCC(COCCCCCCCC/C=C\C/C=C\CCCCC)NCCCn1ccnc1
Response: 185
